target: [Pyruvate dehydrogenase (acetyl-transferring)] kinase isozyme 4, mitochondrial (Homo sapiens, UniProt Q16654)
Sequence (Q16654 whole entry): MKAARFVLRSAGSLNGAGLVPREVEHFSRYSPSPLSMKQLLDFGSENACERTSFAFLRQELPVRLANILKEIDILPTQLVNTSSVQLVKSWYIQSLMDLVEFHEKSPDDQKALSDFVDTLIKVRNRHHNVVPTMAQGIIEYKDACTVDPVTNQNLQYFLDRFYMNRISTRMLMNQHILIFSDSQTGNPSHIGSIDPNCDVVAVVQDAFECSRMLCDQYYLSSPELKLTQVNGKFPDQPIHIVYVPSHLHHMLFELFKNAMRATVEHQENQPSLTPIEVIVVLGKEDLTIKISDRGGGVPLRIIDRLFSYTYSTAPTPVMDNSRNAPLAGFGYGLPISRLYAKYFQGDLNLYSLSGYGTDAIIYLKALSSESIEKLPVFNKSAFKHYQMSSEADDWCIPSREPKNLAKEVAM

molecule | IC50
O=S(=O)(c1ccc(O)cc1O)N1Cc2cc(O)cc(O)c2C1 | 840 nM

----------
target: Heat shock protein HSP 90-alpha (Homo sapiens)
pKi: −log10 of the molar value.
Below: a set of entries, each annotated with reported pKi.

molecule | inequality operator | pKi
C[C@H]1CCc2cc(F)ccc2N1C(=O)c1ccc(O)cc1O | = | 5.46
Cc1cnc(Cl)nc1-c1ccc(N(Cc2ccc(CN3CCCC3)cc2)C(=O)c2ccc(O)cc2O)cc1 | = | 5.49
CN(C(=O)c1ccc(O)cc1O)c1ccc(C(=O)N2CC(C(=O)O)Oc3ccccc32)cc1 (stereo not given) | = | 6.74
Cc1cnc(Cl)nc1-c1ccc(N(Cc2ccc(CNC(=O)C(F)F)cc2)C(=O)c2ccc(O)cc2O)cc1 | < | 4.00
Cc1cc2ccccc2nc1-c1ccc2c(c1)CC[C@H](C)N2C(=O)c1ccc(O)cc1O | = | 4.97
